Biological target: T1, Human TIGIT protein with HIS tag (human, UniProt Q495A1 22-141)
T1 construct: A soluble analyte is probably only the extracellular part; also called human TIGIT recombinant protein; not shown: HIS tag
T1 sequence: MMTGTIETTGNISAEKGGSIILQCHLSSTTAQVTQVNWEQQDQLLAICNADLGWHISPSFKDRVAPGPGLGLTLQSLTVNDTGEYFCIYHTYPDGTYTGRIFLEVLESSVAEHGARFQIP
Experiment: SPR Biacore T200; antibody Fc-captured, TIGIT-His analyte

{"columns": ["BINDER", "koff (s⁻¹)"],
 "data": [
  ["64G1E9B4VH1_VL1.M1 (antibody, human IgG1, V domains shown, Humanized antibody, variable domains fused with the constant region of human IgG1; also called 64G1VH1_VL1.M1) VH: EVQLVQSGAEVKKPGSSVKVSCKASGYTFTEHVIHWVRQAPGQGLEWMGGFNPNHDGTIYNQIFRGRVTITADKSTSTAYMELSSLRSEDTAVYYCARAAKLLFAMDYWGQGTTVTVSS VL: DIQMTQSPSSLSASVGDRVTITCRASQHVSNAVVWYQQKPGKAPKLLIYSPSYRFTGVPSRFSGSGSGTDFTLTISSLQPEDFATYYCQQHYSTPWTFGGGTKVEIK", "8.8e-05"],
  ["64G1E9B4VH1.M1_VL1.M1 (antibody, human IgG1, V domains shown, Humanized antibody, variable domains fused with the constant region of human IgG1; also called 64G1VH1.M1_VL1.M1) VH: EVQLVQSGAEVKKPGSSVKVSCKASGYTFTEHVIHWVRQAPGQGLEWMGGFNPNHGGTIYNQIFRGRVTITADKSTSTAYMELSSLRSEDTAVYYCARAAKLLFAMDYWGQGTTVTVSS VL: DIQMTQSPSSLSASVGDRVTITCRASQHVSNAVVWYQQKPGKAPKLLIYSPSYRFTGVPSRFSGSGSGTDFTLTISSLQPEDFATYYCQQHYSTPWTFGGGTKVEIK", 0.0001],
  ["100C4E7D11 chimeric (antibody, V domains shown, also called 100C4 Chimeric) VH: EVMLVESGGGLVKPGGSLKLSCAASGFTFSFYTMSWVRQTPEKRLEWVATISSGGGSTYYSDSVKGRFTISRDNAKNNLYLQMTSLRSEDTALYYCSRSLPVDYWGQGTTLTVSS VL: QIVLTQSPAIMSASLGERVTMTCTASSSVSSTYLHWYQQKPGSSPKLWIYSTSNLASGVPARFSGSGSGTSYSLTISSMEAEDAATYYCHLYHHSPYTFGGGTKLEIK", 0.00016],
  ["64G1E9B4 chimeric (antibody, V domains shown, also called 64G1 Chimeric) VH: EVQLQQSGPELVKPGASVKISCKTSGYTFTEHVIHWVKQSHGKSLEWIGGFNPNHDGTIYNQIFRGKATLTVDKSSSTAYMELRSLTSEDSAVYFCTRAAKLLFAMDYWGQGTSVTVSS VL: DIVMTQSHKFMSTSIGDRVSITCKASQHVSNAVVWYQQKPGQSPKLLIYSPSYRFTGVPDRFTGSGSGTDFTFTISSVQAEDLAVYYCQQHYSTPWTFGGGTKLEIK", "6.4e-05"]
]}
